# Tested on: UACC-257
# Protocol summary: NCI tumour cell line growth inhibition, 48 h
Where a name gives a salt, the structure may show the parent alone. The source made the active and inactive calls. No stated cut-off is given here; in the data, active = GI50 up to about 1.1 µM and inactive = higher.
Reported metric: GI50

Examples with answers:
Compound	Val
Cc1cc2[nH]c3c(C#N)c(-c4ccccc4)c(/N=N/c4cccc(C(F)(F)F)c4)c(=O)n3c2cc1C	26.8 µM (inactive)
CCCCc1oc2ccccc2c1C(=O)c1cc(I)c(OCCN(CC)CC)c(I)c1 [AMIODARONE HYDROCHLORIDE]	5.21 µM (inactive)
CCCCCC(=O)Nc1[nH]cnc1C(N)=O	> 100 µM (inactive)
O=C(Oc1cccnc1)c1cc2cc(CCl)ccc2oc1=O	30.6 µM (inactive)

As a next step, examine the compound that follows.
May I ask what GI50 has been recorded for O=C1c2cc3c(cc2CC12Cc1cc4c(cc1C2=O)CCCC4)CCCC3 ? 10.9 µM (inactive)
